Data credit: the NIST ThermoML archive (doi:10.1016/j.jct.2013.06.003)

# measurement-description: Molar enthalpy of transition or fusion
# test-context: Crystal; DSC
parameter: Molar enthalpy of transition or fusion (kcal/mol)

N#Cc1cccc(I)c1 = 3.61
N#Cc1cccc(Br)c1 = 3.97
N#Cc1ccc(Br)cc1 = 4.95
N#Cc1ccccc1I = 3.97
N#Cc1ccc(I)cc1 = 5.64
N#Cc1ccccc1Br = 4.11

###

# test-context: Crystal; DTA
parameter: Normal melting temperature (°C)

Some molecules with recorded Normal melting temperature:
N#Cc1cccc(I)c1 = 40.12
N#Cc1ccccc1I = 53.54

(I) N#Cc1ccc(I)cc1
(II) N#Cc1ccccc1Br
Query: When the recorded Normal melting temperature values are compared, which is smaller: that of I or that of II ? Selection: enter the item's label.
Result: II
(II: 54.0 °C, I: 125.46 °C)
